biological target: Poly [ADP-ribose] polymerase 1 (Homo sapiens, UniProt P09874); conditions: dose 100.0 nM, time 30.0 min
Sequence (P09874 whole entry): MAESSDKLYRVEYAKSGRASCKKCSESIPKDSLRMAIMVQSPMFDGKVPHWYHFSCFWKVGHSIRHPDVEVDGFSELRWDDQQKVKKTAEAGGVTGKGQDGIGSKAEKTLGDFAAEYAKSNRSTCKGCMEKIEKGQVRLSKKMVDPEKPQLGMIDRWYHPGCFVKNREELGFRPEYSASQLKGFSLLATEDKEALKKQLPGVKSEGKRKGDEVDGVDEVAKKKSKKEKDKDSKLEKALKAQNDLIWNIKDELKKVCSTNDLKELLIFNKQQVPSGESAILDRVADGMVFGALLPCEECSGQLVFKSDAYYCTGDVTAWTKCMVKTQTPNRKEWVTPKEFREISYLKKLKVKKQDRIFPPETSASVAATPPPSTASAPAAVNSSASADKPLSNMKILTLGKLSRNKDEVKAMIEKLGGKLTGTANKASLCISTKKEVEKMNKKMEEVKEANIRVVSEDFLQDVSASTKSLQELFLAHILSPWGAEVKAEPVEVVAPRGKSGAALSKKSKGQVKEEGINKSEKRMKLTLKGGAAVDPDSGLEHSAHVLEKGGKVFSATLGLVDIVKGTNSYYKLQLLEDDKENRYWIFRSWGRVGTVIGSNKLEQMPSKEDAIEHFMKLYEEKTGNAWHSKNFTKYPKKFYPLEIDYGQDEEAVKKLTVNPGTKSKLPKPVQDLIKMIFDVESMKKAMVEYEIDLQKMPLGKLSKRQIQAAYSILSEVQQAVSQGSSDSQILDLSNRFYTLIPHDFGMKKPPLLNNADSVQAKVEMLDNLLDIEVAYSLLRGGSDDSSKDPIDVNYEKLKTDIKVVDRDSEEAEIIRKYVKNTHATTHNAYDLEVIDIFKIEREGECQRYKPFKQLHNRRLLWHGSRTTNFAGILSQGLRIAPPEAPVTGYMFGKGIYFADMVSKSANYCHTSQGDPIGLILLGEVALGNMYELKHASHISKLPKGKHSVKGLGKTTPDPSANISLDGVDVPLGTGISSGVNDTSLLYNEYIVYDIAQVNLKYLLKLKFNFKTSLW
Outcome label depends on inhibition relative to 30%: at/above gives Fulfilled, below gives Not fulfilled.

- SMILES_TEXT: "Oc1cc(/C=N/NC(=S)Nc2ccccc2)cc(Br)c1O"
  CLASSIFICATION: "Not fulfilled"

[ask] // inclusive: inhibition at least 30%? input: COc1cc(/C=N/NC(N)=S)cc(Br)c1OC
[reply] Not fulfilled

[ask] // inclusive: inhibition at least 30%? input: COc1ccc(/C=N/NC(N)=S)cc1O
[reply] Not fulfilled

* * *

For each record, write down the corresponding inhibition.
target: Poly [ADP-ribose] polymerase 1 (Homo sapiens, UniProt P09874); details: dose 100.0 nM, time 30.0 min
Give bare numbers, in %.

- SMILES_TEXT: "COc1cc(/C=N/NC(=S)NCCCN2CCOCC2)c(Br)c(Br)c1OC"
  UNITS_SYMBOL: "%"
  inhibition: 51.5
- SMILES_TEXT: "CCOC(=O)c1ccc(NC(=S)N/N=C/c2cc(OC)c(OC)c(Br)c2Br)cc1"
  UNITS_SYMBOL: "%"
  inhibition: 72.2
- SMILES_TEXT: "COc1cc(/C=N/NC(=S)Nc2ccc(Cl)cc2)cc(Br)c1OC"
  UNITS_SYMBOL: "%"
  inhibition: 32.2
- SMILES_TEXT: "CNC(=S)N/N=C/c1cc(OC)c(OC)c(Br)c1Br"
  UNITS_SYMBOL: "%"
  inhibition: 32.2

For each of the compounds below, note its inhibition.
1. COc1cc(/C=N/NC(=S)Nc2ccccc2)cc(Br)c1O
2. NC(=S)N/N=C/c1cc(O)c(O)c(Br)c1Br

[reply]
1. 35.5
2. 37.1

* * *

molecular target: Poly [ADP-ribose] polymerase 1 (Homo sapiens, UniProt P09874); details: dose 100.0 nM, time 30.0 min
MEASURED_ENDPOINT: inhibition (%)
Give bare numbers, in %.

- SMILES_TEXT: "CNC(=S)N/N=C/c1cc(Br)c(OC)c(OC)c1"
  MEASURED_ENDPOINT: "inhibition"
  NUMBER: 44.1

For each of the compounds below, note its inhibition.
1. COc1cc(/C=N/NC(=S)Nc2ccc(F)cc2)cc(Br)c1OC
2. COc1cc(/C=N/NC(=S)Nc2ccc(F)cc2)c(Br)c(Br)c1OC
3. COc1cc(/C=N/NC(N)=S)c(Br)c(Br)c1O
4. COc1cc(Br)c(/C=N/NC(=S)Nc2ccccc2)cc1OC

[reply]
1. 38.1
2. 46.6
3. 61
4. 37

For each of the compounds below, note its inhibition.
1. COc1cc(/C=N/NC(=S)Nc2ccc(Oc3ccccc3)cc2)cc(Br)c1OC
2. COc1ccc(/C=N/NC(N)=S)c(Br)c1O
3. Oc1ccc(/C=N/NC(=S)Nc2ccccc2)cc1O
4. COc1cc(/C=N/NC(=S)NCCCN2CCOCC2)cc(Br)c1OC
5. COc1cc(/C=N/NC(=S)Nc2ccccc2)c(Br)c(Br)c1O

[reply]
[27.7, 34.8, 40.7, 33, 12.5]

* * *

system: Caco-2; experiment: Antiproliferative activity against human Caco-2 cells assessed as cell growth inhibition at 20 uM incubated for 48 hrs by MTT assay relative to control; format: functional
For each record, write down the corresponding inhibition at 20 µM.
Answers are plain numbers, in %.

- SMILES_TEXT: "COc1ccc(/C=N/NC(=S)Nc2ccccc2)c(Br)c1O"
  UNITS_SYMBOL: "%"
  inhibition at 20 µM: 82.4
- SMILES_TEXT: "COc1cc(/C=N/NC(=S)Nc2ccccc2)c(Br)c(Br)c1OC"
  UNITS_SYMBOL: "%"
  inhibition at 20 µM: 14.2
- SMILES_TEXT: "COc1cc(/C=N/NC(=S)Nc2cccc(C(F)(F)F)c2)cc(Br)c1OC"
  UNITS_SYMBOL: "%"
  inhibition at 20 µM: 21

For each of the compounds below, note its inhibition at 20 µM.
1. COc1cc(/C=N/NC(N)=S)c(Br)c(Br)c1O
2. COc1cc(/C=N/NC(=S)Nc2cccc(C(F)(F)F)c2)c(Br)c(Br)c1OC
3. COc1cc(/C=N/NC(=S)NCCCN2CCOCC2)cc(Br)c1OC

[reply]
1: 24.9; 2: 6.4; 3: 36.9

[ask] For the compound CCOC(=O)c1ccc(NC(=S)N/N=C/c2cc(OC)c(OC)c(Br)c2Br)cc1 , what inhibition at 20 µM is on record?
[reply] 76.5
